- TEST_TARGET: μ-opioid receptor (hMOR-CHO cells) (Homo sapiens, UniProt P35372)
- Sequence (P35372 whole entry): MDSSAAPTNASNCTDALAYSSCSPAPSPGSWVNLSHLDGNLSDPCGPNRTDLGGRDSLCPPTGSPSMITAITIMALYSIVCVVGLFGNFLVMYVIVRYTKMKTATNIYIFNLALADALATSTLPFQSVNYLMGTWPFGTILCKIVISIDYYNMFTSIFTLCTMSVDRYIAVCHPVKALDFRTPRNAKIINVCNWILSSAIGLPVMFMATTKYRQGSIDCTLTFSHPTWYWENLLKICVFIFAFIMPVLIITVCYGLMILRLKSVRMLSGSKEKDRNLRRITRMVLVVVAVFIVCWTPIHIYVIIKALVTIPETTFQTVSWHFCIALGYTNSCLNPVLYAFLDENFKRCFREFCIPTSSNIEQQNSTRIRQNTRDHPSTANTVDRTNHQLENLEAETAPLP
- TEST_METHOD_NOTES: biochemical
- Format: binding
- CONDITION_SUMMARY: Ki μ
Binarize Ki at 0.02 µM; below is YES, at or above is NO.

Recorded results for 3 compounds are shown here.
{"columns": ["COMPOUND", "LABEL_CLASS"],
 "data": [
  ["CN1CCC23CCCC1C2C=Cc1ccc(O)cc13 (stereo not drawn) [Compound 20]", "NO"],
  ["Oc1cccc2c1CCC1C3CCCC21CCN3CCc1ccccc1 (stereo not drawn) [Compound 17]", "NO"],
  ["CN1CCC23CCCC1C2C=Cc1c(O)cccc13 (stereo not drawn) [Compound 14]", "NO"]
]}

Asked: Strictly below 0.02 µM in Ki? Oc1cccc2c1C=CC1C3CCCC21CCN3CCc1ccccc1 (stereo not drawn) [Compound 16]
Given back: YES

Asked: API: query returns whether the compound falls strictly under 0.02 µM in Ki. Query: Oc1ccc2c(c1)C13CCCC(C1CC2)N(CCc1ccccc1)CC3 (stereo not drawn) [Compound 24]
Given back: YES

Asked: hey, is Ki for Oc1ccc2c(c1)C13CCCC(C1C=C2)N(CCc1ccccc1)CC3 (stereo not drawn) [Compound 23] lower than 0.02 µM or not?
Given back: YES
